Source of measurements: ChEMBL document CHEMBL3877244

- Procedure Details: Cytotoxicity against human PC3 cells assessed as reduction in cell viability after 24 hrs in presence of 10% fetal calf serum by MTS assay
- Assay type: functional, cell-based
- Conditions: PC-3, 24 h
Measured Quantity: IC50 (µM)

Compound String: C/C(=C\CN1CCC(Cc2ccccc2)CC1)c1ccc2ccccc2c1
Test Result: 50.6

* * *

Entries and their pKi
- Assayed System: Sigma non-opioid intracellular receptor 1 (Cavia porcellus, UniProt Q60492)
- Sequence (Q60492 whole entry): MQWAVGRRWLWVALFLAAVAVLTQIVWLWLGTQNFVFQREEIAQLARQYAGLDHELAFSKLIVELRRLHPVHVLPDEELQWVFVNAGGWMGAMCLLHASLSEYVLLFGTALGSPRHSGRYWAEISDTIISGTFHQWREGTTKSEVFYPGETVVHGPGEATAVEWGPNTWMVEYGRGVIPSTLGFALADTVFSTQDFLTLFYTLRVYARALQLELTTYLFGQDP
- Procedure Details: Displacement of [3H]-pentazocine from sigma 1 receptor in guinea pig brain cortical membrane after 120 mins by scintillation counting analysis
pKi: −log10 of the molar value.
Measured Quantity: pKi

Compound: CC(CCN1CCC(Cc2ccccc2)CC1)c1ccc2cc(O)ccc2c1 (stereo in doubt; 12)
Test Result: 7.23

Compound: CC(CCN1CCC(Cc2ccccc2)CC1)c1ccccc1 (single isomer, unassigned; (+))
Test Result: 8.54

Compound: CC(O)(CCN1CCC(Cc2ccccc2)CC1)c1ccc2cc(O)ccc2c1 (stereo in doubt; 9a)
Test Result: 7.15

Compound: CC(CCN1CCC(Cc2ccccc2)CC1)c1ccccc1 (stereo in doubt; 6b)
Test Result: 8.52

Compound: CC(O)(CCN1CCC(Cc2ccccc2)CC1)c1ccc2ccccc2c1 (single isomer, unassigned; (+))
Test Result: 8.00

Compound: CC(O)(CCN1CCC(Cc2ccccc2)CC1)c1ccccc1 (stereo in doubt; 2a)
Test Result: 7.57

Compound: CC(O)(CCN1CCC(Cc2ccccc2)CC1)c1ccc2ccccc2c1 (racemic)
Test Result: 8.16

Compound: CC(O)(CCN1CCC(Cc2ccccc2)CC1)c1ccccc1 (stereo in doubt; 2b)
Test Result: 7.40

Compound: CC(O)(CCN1CCC(Cc2ccccc2)CC1)c1ccc2cc(O)ccc2c1 (racemic)
Test Result: 7.57

Compound: CC(CCN1CCC(Cc2ccccc2)CC1)c1ccc2cc(O)ccc2c1 (single isomer, unassigned; (-))
Test Result: 7.89

Compound: CC(CCN1CCC(Cc2ccccc2)CC1)c1ccc2ccccc2c1 (single isomer, unassigned; (+))
Test Result: 8.22

Compound: CC(O)(CCN1CCC(Cc2ccccc2)CC1)c1ccccc1 (racemic)
Test Result: 8.01

Compound: CC(O)(CCN1CCC(Cc2ccccc2)CC1)c1ccc2ccccc2c1 (stereo in doubt; 1b)
Test Result: 7.96

Compound: CC(CCN1CCC(Cc2ccccc2)CC1)c1ccc2ccccc2c1 (single isomer, unassigned; (-))
Test Result: 8.16

Compound: CC(O)(CCN1CCC(Cc2ccccc2)CC1)c1ccc2cc(O)ccc2c1 (single isomer, unassigned; (-))
Test Result: 7.21

Compound: CC(CCN1CCC(Cc2ccccc2)CC1)c1ccccc1 (racemic)
Test Result: 8.68

Compound: CC(CCN1CCC(Cc2ccccc2)CC1)c1ccc2cc(O)ccc2c1 (single isomer, unassigned; (+))
Test Result: 7.46

Compound: CC(CCN1CCC(Cc2ccccc2)CC1)c1ccc2ccccc2c1 (racemic)
Test Result: 8.25

* * *

- Procedure Details: Cytotoxicity against human U87 cells assessed as reduction in cell viability after 24 hrs in presence of 10% fetal calf serum by MTS assay
- Format: functional, cell-based, U-87MG ATCC
- Conditions: U-87 MG

Compound String: C/C(=C\CN1CCC(Cc2ccccc2)CC1)c1ccc2ccccc2c1
IC50 / µM: 60.6

* * *

Overview of reported Ki across a group of compounds:
- Assayed System: Sigma non-opioid intracellular receptor 1 (Cavia porcellus)
- Procedure Details: Displacement of [3H]-pentazocine from sigma 1 receptor in guinea pig brain cortical membrane after 120 mins by scintillation counting analysis

Compound String: C/C(=C\CN1CCC(Cc2ccccc2)CC1)c1ccc2ccccc2c1
Ki: 12 nM
--
Compound String: C/C(=C\CN1CCC(Cc2ccccc2)CC1)c1ccc2cc(O)ccc2c1
Ki: 9.6 nM
--
Compound String: C/C(=C\CN1CCC(Cc2ccccc2)CC1)c1ccccc1
Ki: 0.7 nM
